# TARGET OR SYSTEM: Galectin-3 (Homo sapiens, UniProt P17931)
# Sequence (P17931 whole entry): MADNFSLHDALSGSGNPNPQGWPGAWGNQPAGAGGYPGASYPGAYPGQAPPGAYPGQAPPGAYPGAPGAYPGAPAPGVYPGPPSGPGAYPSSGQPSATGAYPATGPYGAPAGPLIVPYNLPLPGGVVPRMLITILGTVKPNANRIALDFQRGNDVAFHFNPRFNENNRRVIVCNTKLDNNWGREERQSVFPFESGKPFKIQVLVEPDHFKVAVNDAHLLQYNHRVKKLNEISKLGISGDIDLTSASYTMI
# ASSAY COMMENT: Binding affinity at recombinant human Galectin 3 expressed in Escherichia coli BL21 incubated for 5 mins by fluorescence anisotropy assay
OBSERVATION TYPE: Kd

Please review the following examples before continuing.
CO[C@@H]1O[C@H](CO)[C@H](O)[C@@H](Nc2ccc(F)c(F)c2)[C@H]1O | Not Active
CO[C@@H]1O[C@H](CO)[C@H](O)[C@@H](Nc2cccc(C)c2)[C@H]1O | Not Active
COc1cccc(N[C@H]2[C@@H](O)[C@@H](Sc3ccc(Cl)c(Cl)c3)O[C@H](CO)[C@@H]2O)c1 | Not Active
CO[C@@H]1O[C@H](CO)[C@H](O)[C@H](Nc2ccc(C)c(C)c2)[C@H]1O | Not Active

**Q:** Form: Entry = CO[C@@H]1O[C@H](CO)[C@H](O)[C@@H](Nc2ccc(C)c(C)c2)[C@H]1O | System = Galectin-3 (Homo sapiens, UniProt P17931) | Kd = ____
**A:** Not Active

---

# pKd per record follows
# TARGET OR SYSTEM: UniProt P09382
# Sequence (P09382 whole entry): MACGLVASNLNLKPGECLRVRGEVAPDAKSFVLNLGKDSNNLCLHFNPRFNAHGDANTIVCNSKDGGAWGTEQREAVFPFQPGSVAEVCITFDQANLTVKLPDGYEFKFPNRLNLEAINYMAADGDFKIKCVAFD
# ASSAY COMMENT: Binding affinity at recombinant human Galectin 1 expressed in Escherichia coli BL21 incubated for 5 mins by fluorescence anisotropy assay
# TEST CONDITIONS: read-out: Kd
pKd (log units): -log10 of the concentration in mol/L.

Please review the following examples before continuing.
CO[C@@H]1O[C@H](CO)[C@H](O)[C@H](Nc2cccc(Cl)c2)[C@H]1O | 2.85
Cc1ccc(N[C@@H]2[C@@H](O)[C@@H](Sc3ccc(Cl)c(Cl)c3)O[C@H](CO)[C@@H]2O)cc1C | 4.36
COc1ccc(N[C@H]2[C@@H](O)[C@@H](CO)O[C@@H](OC)[C@@H]2O)cc1 | 2.92
CO[C@@H]1O[C@H](CO)[C@H](O)[C@H](Nc2cccc(C)c2)[C@H]1O | 3.07
COc1ccc(N[C@@H]2[C@@H](O)[C@@H](Sc3ccc(Cl)c(Cl)c3)O[C@H](CO)[C@@H]2O)cc1 | 3.92
COc1cccc(N[C@H]2[C@@H](O)[C@@H](CO)O[C@@H](OC)[C@@H]2O)c1 | 2.89
CO[C@@H]1O[C@H](CO)[C@H](O)[C@@H](Nc2ccc(F)c(F)c2)[C@H]1O | 2.74
OC[C@H]1O[C@H](Sc2ccc(Cl)c(Cl)c2)[C@H](O)[C@@H](Nc2cccc(Cl)c2)[C@H]1O | 4.34
COc1cccc(N[C@@H]2[C@@H](O)[C@@H](Sc3ccc(Cl)c(Cl)c3)O[C@H](CO)[C@@H]2O)c1 | 4.39

**Q:** Given the entry CO[C@@H]1O[C@H](CO)[C@H](O)[C@H](Nc2ccc(F)c(F)c2)[C@H]1O , report its measured pKd.
**A:** 2.82
